tested_target: androgen receptor (Homo sapiens, UniProt P10275, T878A)
Construct: 2*10^6 LNCaP cells in 6 ml of RPMI 1640 without phenol red are grown; endogenous in cells; host or cells: LNCaP (human prostate cell line)
Sequence (P10275 whole entry T878A): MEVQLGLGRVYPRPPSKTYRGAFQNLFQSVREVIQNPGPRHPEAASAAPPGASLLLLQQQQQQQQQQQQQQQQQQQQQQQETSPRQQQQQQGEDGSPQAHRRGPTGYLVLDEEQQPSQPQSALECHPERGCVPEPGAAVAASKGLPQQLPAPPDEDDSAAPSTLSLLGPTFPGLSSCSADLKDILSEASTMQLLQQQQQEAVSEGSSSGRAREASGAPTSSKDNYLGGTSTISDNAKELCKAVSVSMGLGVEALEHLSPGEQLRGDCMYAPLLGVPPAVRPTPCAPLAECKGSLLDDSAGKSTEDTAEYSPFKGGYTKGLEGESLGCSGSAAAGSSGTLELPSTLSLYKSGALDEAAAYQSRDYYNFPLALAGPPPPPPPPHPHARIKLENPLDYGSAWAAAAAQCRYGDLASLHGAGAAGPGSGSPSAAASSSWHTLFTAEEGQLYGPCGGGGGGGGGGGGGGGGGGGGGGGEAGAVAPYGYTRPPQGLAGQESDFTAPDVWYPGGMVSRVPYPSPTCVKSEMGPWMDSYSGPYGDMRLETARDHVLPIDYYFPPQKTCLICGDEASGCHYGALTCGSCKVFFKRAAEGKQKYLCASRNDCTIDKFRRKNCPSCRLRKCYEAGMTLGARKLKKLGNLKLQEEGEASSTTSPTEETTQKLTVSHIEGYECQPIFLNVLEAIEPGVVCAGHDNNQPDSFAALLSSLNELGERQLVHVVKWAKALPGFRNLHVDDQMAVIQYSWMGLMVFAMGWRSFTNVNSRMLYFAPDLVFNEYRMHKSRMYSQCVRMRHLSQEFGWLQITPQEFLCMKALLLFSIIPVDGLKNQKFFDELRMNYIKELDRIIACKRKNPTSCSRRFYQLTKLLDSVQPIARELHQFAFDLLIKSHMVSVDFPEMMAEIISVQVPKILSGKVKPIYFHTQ
run_description: cell-based
measurement_context: LNCaP, 48 h, read-out: AR Content [%] At 10 μM
endpoint_name: remaining activity at 10 µM (%)
Numbers only, in %.

1. CC1=C(CCCCCCN2CCN(C(=O)c3ccc(C#N)cc3)CC2)C(=O)N(c2ccc(C#N)c(C(F)(F)F)c2)C1=O
73
2. CC1=C(CCCCCCN2CCN(S(C)(=O)=O)CC2)C(=O)N(c2ccc(C#N)c(C(F)(F)F)c2)C1=O
48
3. COc1ccc(C(=O)N2CCN(CCCCCC3=C(C)C(=O)N(c4ccc(C#N)c(C(F)(F)F)c4)C3=O)CC2)cc1OC
22

Provide remaining activity at 10 µM for all items below, preserving their order.
1. CC1=C(CCCCN2CCN(C(=O)c3cccs3)CC2)C(=O)N(c2ccc(C#N)c(C(F)(F)F)c2)C1=O
2. COc1ccccc1C(=O)N1CCN(CCCCCCC2=C(C)C(=O)N(c3ccc(C#N)c(C(F)(F)F)c3)C2=O)CC1
3. CC1=C(CCCCN2CCN(C(=O)c3ccc(N(C)C)cc3)CC2)C(=O)N(c2ccc(C#N)c(C(F)(F)F)c2)C1=O
4. CC1=C(CCCCCCN2CCN(C(=O)Nc3c(F)cccc3F)CC2)C(=O)N(c2ccc(C#N)c(C(F)(F)F)c2)C1=O

### Response
1: 66; 2: 22; 3: 50; 4: 61

* * *

Test system: MaTu cells
run_description: Model 3: Proliferation of non-prostate cells, MaTu
Assay type: cell-based, human
measurement_context: 10 μM, 3-day treatment; percent of cell growth of solvent control
For each of the molecules below, state its Proliferation in the Cell Line MaTu.

Solved entries (count: 2):
1. COc1ccccc1C(=O)N1CCN(CCCCCCC2=C(C)C(=O)N(c3ccc(C#N)c(C(F)(F)F)c3)C2=O)CC1 [Example 248]
98 +/− 4%
2. CC1=C(CCCCCCN2CCN(C(=O)Nc3ccccc3)CC2)C(=O)N(c2ccc(C#N)c(C(F)(F)F)c2)C1=O [Example 315]
95 +/− 7%

Next molecule, please.
### Prompt What measured Proliferation in the Cell Line MaTu goes with CC1=C(CCCCN2CCN(C(=O)c3ccccc3Cl)CC2)C(=O)N(c2ccc(C#N)c(C(F)(F)F)c2)C1=O [Example 90] ?
### Response 96 +/− 3%
